Where these numbers come from: paper PMC8769072

Biological target: KPNA4 68-487, O00629
Sequence (O00629 68-487): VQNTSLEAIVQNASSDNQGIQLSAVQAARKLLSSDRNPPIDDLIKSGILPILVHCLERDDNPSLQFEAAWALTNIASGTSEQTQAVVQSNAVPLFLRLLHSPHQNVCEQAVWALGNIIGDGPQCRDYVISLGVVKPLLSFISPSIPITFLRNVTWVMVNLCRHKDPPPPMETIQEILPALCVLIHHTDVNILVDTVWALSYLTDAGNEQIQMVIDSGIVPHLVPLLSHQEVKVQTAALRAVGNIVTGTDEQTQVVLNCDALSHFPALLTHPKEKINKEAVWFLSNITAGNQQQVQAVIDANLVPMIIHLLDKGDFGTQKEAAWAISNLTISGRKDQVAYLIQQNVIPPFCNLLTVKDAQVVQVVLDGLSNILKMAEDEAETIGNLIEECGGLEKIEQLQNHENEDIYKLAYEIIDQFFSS
readout: selected by phage display

{"binder": "AEQSKRPRLEVGHQGV [EP400, Q96L91]", "val": "confidence 3 (active)"}
{"binder": "GVKRTYSEVYPGQQYL [ZMIZ2, Q8NF64]", "val": "confidence 3 (active)"}
{"binder": "RGLKRSLSEMEIGMVV [SRF, P11831]", "val": "confidence 2 (active)"}
{"binder": "DLKRRLDSITSSQSSA [KDR, P35968]", "val": "confidence 2 (active)"}
